assay: fungicidal lysis via adenylate kinase leakage – AK release luminescence, single concentration, primary screen (AID 651654); details: C. neoformans lysis, 4 h, at 15 µM, active compounds read high, normalised: neutral wells 0, clomiphene wells 100
The whole screen tested about 360,000 compounds, of which about 740 (0.21%) were called active. Only a selection was taken, and actives are over-represented in it overall.
property-label: lysis activity (%)
Please state the figure in %; there is no need to write the unit.

Lab note: CO[C@@H]1CN(C)C(=O)c2cc(NC(=O)C3CC3)ccc2OC[C@H](C)N(Cc2ccc(F)cc2)C[C@@H]1C gave lysis activity of 0.205

Lab note: C[C@@H]1CN([C@@H](C)CO)C(=O)c2cc(NC(=O)C3CCCCC3)ccc2O[C@@H]1CN(C)Cc1ccc(C(=O)O)cc1 gave lysis activity of -4.67

Lab note: COc1ccc(CN2[C@@H](CO)[C@@H]3c4ccccc4N(C(=O)Nc4ccccc4)C[C@@H]32)cc1 gave lysis activity of 0.269

Lab note: CO[C@H]1CN(C)C(=O)c2cc(NC(=O)C3CC3)ccc2OC[C@@H](C)N(Cc2cc(F)ccc2F)C[C@H]1C gave lysis activity of 0.743

Lab note: C[C@@H]1CN([C@H](C)CO)C(=O)c2cccc(NS(=O)(=O)c3cn(C)cn3)c2O[C@H]1CN(C)CC1CC1 gave lysis activity of -3.67

Lab note: C[C@@H](NC(=O)C[C@@H]1C=C[C@@H](NC(=O)CN2CCOCC2)[C@H](CO)O1)c1ccccc1 gave lysis activity of 13.5

Lab note: Cc1ccc(OCC(=O)Nc2ccc(C(=O)O)cc2NC(=O)COc2ccc(C)c(C)c2)cc1C gave lysis activity of -1.83

Lab note: C/C=C/c1cnc2c(c1)C(=O)N([C@@H](C)CO)C[C@@H](C)[C@H](CN(C)Cc1cncnc1)O2 gave lysis activity of -1.92

Lab note: CO[C@@H]1CN(C)C(=O)c2cc(NC(=O)Nc3cccc(F)c3)ccc2OC[C@H](C)N(C)C[C@@H]1C gave lysis activity of 98.7

Lab note: C[C@@H]1CN([C@@H](C)CO)C(=O)c2cc(NS(=O)(=O)c3cn(C)cn3)ccc2O[C@@H](C)CCCCO[C@H]1CN(C)S(=O)(=O)c1cn(C)cn1 gave lysis activity of 1.43

Lab note: O=C(NCc1cccc(F)c1)[C@H]1[C@H](CO)[C@H]2Cn3c(cccc3=O)[C@@H]1N2 gave lysis activity of 0.27

Lab note: C[C@@H]1CN([C@H](C)CO)S(=O)(=O)c2ccc(-c3cncnc3)cc2O[C@@H]1CN(C)Cc1ccccn1 gave lysis activity of -14.8

Lab note: CO[C@@H]1CN(C)C(=O)c2cc(NC(=O)C3CC3)ccc2OC[C@@H](C)N(Cc2ccc(F)cc2)C[C@@H]1C gave lysis activity of 1.45

Lab note: COc1cccc(NC(=O)C[C@H]2CC[C@@H]3[C@@H](COc4ccc(NC(=O)C5CCOCC5)cc4C(=O)N3C)O2)c1 gave lysis activity of 1.2

Lab note: COc1cccc(S(=O)(=O)Nc2ccc3c(c2)[C@@H]2C[C@@H](CC(=O)NC4CCCCC4)O[C@H](CO)[C@@H]2O3)c1 gave lysis activity of 2.9

Lab note: CCN1[C@@H]2c3ccc(C4=CCCC4)c(=O)n3C[C@@H]2[C@@H](CO)[C@@H]1C(=O)NCc1ccccn1 gave lysis activity of 1.37

Lab note: COc1ccccc1S(=O)(=O)N[C@@H]1CC[C@@H](CCn2cc(C3CCCCC3)nn2)O[C@H]1CO gave lysis activity of 18.5

Lab note: Cc1ccc(OCC(=O)NC(C)c2ccccc2)cc1C (configuration not stated) gave lysis activity of 204

Lab note: O=C(C[C@@H]1CC[C@H](NC(=O)Nc2ccc(F)cc2)[C@H](CO)O1)NCc1ccccn1 gave lysis activity of -0.684

Lab note: C#CCN1C(Cc2ccccc2)C(=O)O[C@H](C2CCCCC2)[C@@H]1/C=C/C1CC1 (some centres not stated) gave lysis activity of 5.01

Lab note: COCC#Cc1cnc2c(c1)C(=O)N([C@@H](C)CO)C[C@H](C)[C@@H](CN(C)Cc1ccccc1)O2 gave lysis activity of -2.83

Lab note: C[C@H]1CCCCO[C@H](CN(C)S(=O)(=O)c2cn(C)cn2)[C@@H](C)CN([C@@H](C)CO)C(=O)c2cc(NC(=O)C3CCCCC3)ccc2O1 gave lysis activity of -1.38

Lab note: COc1ccc(CN(C)C[C@@H]2OCCCC[C@H](C)Oc3ccc(NC(=O)c4ccccc4)cc3C(=O)N([C@H](C)CO)C[C@H]2C)cc1 gave lysis activity of -1.71

Lab note: C[C@@H](NC(=O)C[C@H]1C=C[C@@H](NC(=O)CN2CCOCC2)[C@@H](CO)O1)c1ccccc1 gave lysis activity of 18.8

Lab note: C[C@H](CO)N1C[C@H](C)[C@@H](CN(C)C)Oc2cc(C#Cc3ccccc3)ccc2S1(=O)=O gave lysis activity of 0.917

Lab note: COc1ccc(NC(=O)N(C)C[C@@H]2OCCCC[C@@H](C)Oc3ccc(NS(=O)(=O)c4c(C)noc4C)cc3C(=O)N([C@H](C)CO)C[C@@H]2C)cc1 gave lysis activity of -3

Lab note: Cc1ccc(OCCCC(=O)NC(C)c2ccccc2)c(C)c1 (configuration not stated) gave lysis activity of 3.6

Lab note: COc1ccccc1CNC(=O)C[C@H]1CC[C@@H]2[C@H](COC[C@H](O)CN2Cc2ccccc2)O1 gave lysis activity of -1.1

Lab note: C[C@@H]1CN([C@H](C)CO)C(=O)c2cc(NS(=O)(=O)c3cn(C)cn3)ccc2O[C@@H](C)CCCCO[C@H]1CN(C)C gave lysis activity of 109

Lab note: C[C@@H]1CCCCO[C@H](CN(C)C)[C@H](C)CN([C@@H](C)CO)C(=O)c2cc(NS(=O)(=O)c3cn(C)cn3)ccc2O1 gave lysis activity of -0.536

Lab note: COCC(=O)Nc1ccc2c(c1)[C@H]1C[C@H](CC(=O)OC)O[C@@H](CO)[C@H]1O2 gave lysis activity of -5.98

Lab note: CO[C@H]1CN(C)C(=O)c2ccc(NC(=O)C3CC3)cc2OC[C@@H](C)N(Cc2ccc(F)cc2)C[C@@H]1C gave lysis activity of 95.3
